Give Recovery ratio with respect to Hb after 0 days for every item shown.
Test system: hemoglobin-haptoglobin complex
Assay: Stability of hemoglobin (as hemoglobin-haptoglobin complex) in samples preserved at 37° C. in preservation solution containing 1 unit/L haptoglobin, Hb measured by latex agglutination method (Examples 1 to 7)
Parameters: species or system human
Conditions: Feces 2; arylboronic acid 15 mmol/L; 37° C., 7 days
Experimental: Preservation solutions were prepared with the addition of 40 mmol/L HEPES (pH 6.8), 0.1% BSA, 0.1% NaN3, 1 unit/L haptoglobin, and 0 to 100 mmol/L phenylboronic acid. Samples obtained by adding hemoglobin-added fecal specimens to the preservation solutions so that the fecal concentration would be 0.5% were preserved at 37° C. for 0, 7, 14, and 21 days. […] The hemoglobin (Hb) concentrations (μg/L) in the preserved samples were measured by the latex agglutination method. […]
Give bare numbers, in %.

| Compound | Target or system | Result |
| --- | --- | --- |
| OB(O)c1cccc(O)c1 [3H-PBA, 3-hydroxyphenylboronic acid] | hemoglobin-haptoglobin complex | 85 |
| O=C(O)c1ccccc1B(O)O [2C-PBA, 2-carboxyphenylboronic acid] | hemoglobin-haptoglobin complex | 50 |
| O=C(O)c1cccc(B(O)O)c1 [3C-PBA, 3-carboxyphenylboronic acid] | hemoglobin-haptoglobin complex | 85 |

Query compound follows.
[ask] I would be grateful if you could share the reported Recovery ratio with respect to Hb after 0 days for O=C(O)c1ccc(B(O)O)cc1 [4C-PBA, 4-carboxyphenylboronic acid] .
[reply] 76

====

Test system: hemoglobin-haptoglobin complex
Experiment: Stability of hemoglobin (as hemoglobin-haptoglobin complex) in samples preserved at 37° C. in preservation solution containing 1 unit/L haptoglobin, Hb measured by latex agglutination method (Examples 1 to 7)
Set-up: species or system human
Conditions: Feces 2; arylboronic acid 15 mmol/L; 37° C., 14 days
Hi there, I'd appreciate the recorded Hb concentration for every entry that follows.
Please answer using a numeric value trailed by its unit.

Consider the worked cases shown below.
| Compound | Target or system | Hb concentration |
| --- | --- | --- |
| O=C(O)c1cccc(B(O)O)c1 [3C-PBA, 3-carboxyphenylboronic acid] | hemoglobin-haptoglobin complex | 240 µg/L |
| O=C(O)c1ccc(B(O)O)cc1 [4C-PBA, 4-carboxyphenylboronic acid] | hemoglobin-haptoglobin complex | 227 µg/L |
| OB(O)c1cccc(O)c1 [3H-PBA, 3-hydroxyphenylboronic acid] | hemoglobin-haptoglobin complex | 264 µg/L |

[ask] # Hb concentration lookup, item O=C(O)c1ccccc1B(O)O [2C-PBA, 2-carboxyphenylboronic acid]
[reply] 103 µg/L

====

System: hemoglobin-haptoglobin complex
Assay: Stability of hemoglobin (as hemoglobin-haptoglobin complex) in samples preserved at 37° C. in preservation solution containing 1 unit/L haptoglobin, Hb measured by latex agglutination method (Examples 1 to 7)
Design: species or system human
Settings: Feces 3; sugar 100 mmol/L, no phenylboronic acid; 37° C., 21 days
I'd be grateful if you could share measured Hb concentration for these entries.
Give bare numbers, in µg/L.

As a guide, the following entries are already answered.
| Structure notation | Hb concentration, µg/L |
| --- | --- |
| O=C(CO)[C@@H](O)[C@H](O)[C@H](O)CO | 39 |
| OC[C@H]1O[C@H](O[C@H]2O[C@H](CO)[C@@H](O)[C@H](O)[C@H]2O)[C@H](O)[C@@H](O)[C@@H]1O | 47 |
| OC[C@H]1O[C@@](CO)(O[C@H]2O[C@H](CO)[C@@H](O)[C@H](O)[C@H]2O)[C@@H](O)[C@@H]1O | 40 |

[ask] Any idea what its Hb concentration is? The compound is OC[C@@H](O)[C@@H](O)[C@H](O)[C@@H](O)CO
[reply] 56
